Recorded melting point values for a group of molecules are listed next.

Some solved entries appear below for comparison.
INSERT INTO measurements (molecule, observed_value) VALUES
  ('CCCCOc1ccc2c(=O)c(-c3nnnn3C)cn(C)c2c1', '187 to 190 °C'),
  ('COc1ccc(-c2nc(O)cc(O)n2)cc1', '318 °C'),
  ('COc1cc(Cl)cc(C)c1Nc1nc2c(Cl)ccc(C(O)(C(C)(C)C)C(C)(C)C)c2n1C', '246 to 248 °C'),
  ('CCC1(C)OC(c2ccc(S(N)(=O)=O)cc2)=C(c2ccc(OC)c(F)c2)C1=O (stereo unspecified)', '113 to 114 °C');

I would be grateful if you could share the reported melting point for O=C(CC1(C=NO)OCCO1)OCc1ccccc1 .
52 °C

# query: melting point of entry CN(C(=O)c1ccc(CS(=O)(=O)Cn2cnc3ccccc32)cc1)C1CCCCC1
142 to 143 °C

====

Below, each entry is listed alongside its reported melting point.

Previously resolved entries follow.
INSERT INTO measurements (compound, observed_value) VALUES
  ('CCC/C(=C\C=C\C(=O)O)c1ccc(OC)cc1', '151 to 152 °C'),
  ('O=C(CN1CCN(c2ccc([N+](=O)[O-])cc2)CC1)Nc1ccc(Nc2ccccc2)cc1', '212 to 213 °C'),
  ('COc1cc(CC(=O)NCCOc2ccc(C(=O)O)cc2OC)ccc1NC(=O)Nc1ccccc1C', '180 to 181 °C'),
  ('N#Cc1cc(NC(=O)c2cc3ccccc3o2)ccc1OC1CCN(Cc2ccccc2)CC1', '175 °C'),
  ('O=C(O)CCc1ccc(OCc2cccc(-c3cncnc3)c2)cc1', '166 to 167 °C');

Please give the measured melting point for this compound: O=C1c2ccccc2C(O)(C(F)(F)F)c2ccccc21
153 to 155 °C

I am curious: what melting point value has been reported for N#Cc1ccc(O)c(C2(C(=O)O)CCCC2)c1 ?
153 to 154 °C

# melting point lookup, item CS(=O)c1ccc(CSc2nc(-c3ccc(F)cc3)c(-c3ccnc(Cl)c3)[nH]2)cc1 (stereo not drawn)
179 °C

Endpoint output: melting point of CC1=C(CC(=O)O)c2cc(F)ccc2C1=Cc1ccc(S(C)(=O)=O)cc1 . Value?
204 to 206 °C

I would be grateful if you could share the reported melting point for Cc1[nH]c(Cc2ccccc2)nc1CO .
134 to 138 °C

Which melting point is listed for NC1=NS(=O)(=O)Nc2cccc(OC3CCCCC3)c21 ?
215 to 216 °C

Can you look up the measured melting point of CCc1sc2ncnc(N)c2c1-c1ccc(NS(=O)(=O)c2ccccc2)cc1 for me?
209 to 210 °C

Item CC1C(c2ncc(Cl)cc2F)=NN(C)CS1=S (stereo not drawn) has what recorded melting point?
107 to 112 °C

Query (compound): CC(C)(C)C(=O)CC(=O)c1ncn2c1c(=O)n(C(C)(C)C)c1ccccc12 ; field requested: melting point
190 to 191 °C

Form field: reported melting point of COc1ccc2c(c1)C1=C(SCC3(CCN(Cc4ccc(F)cc4)CC3)O1)C(=O)C2=O
196 to 197 °C

Which melting point value is on record for COC(=O)Cc1cc(=O)[nH]c2cc(F)ccc12 ?
255 to 256 °C

Name the reported melting point value associated with the compound Cc1c(C(=O)N[C@@H](Cc2ccc(OCc3ccccc3)cc2)C(=O)O)oc2cc(-c3ccc(Cl)cc3)ccc12
143 to 144 °C

Entry under review: O=C(O)CN1C(=O)C(=Cc2ccc(OCc3ccc(F)cc3F)c(OCc3ccccc3)c2)SC1=S . Reported melting point?
236 to 239 °C

# melting point lookup, item Cc1nnc2n1-c1sc(CCc3ccc(O)cc3)cc1C(c1ccccc1Cl)=NC2
100 °C

What does the record list as melting point for CN(C)c1ccc(C(=O)c2cc(C(F)(F)F)cc(C(F)(F)F)c2)cc1 ?
129 to 131 °C

Entry under review: N#Cc1ccc2ccc(=O)n(CCN3CCC(N)CC3)c2c1 . Reported melting point?
138 °C

Return reported melting point; argument: CCN1C(=O)CC(C)(C)c2ccc(C(=O)O)cc21
202 to 204 °C

Requested field: melting point. Item: CCCCNCCNC(=O)Nc1ccccc1C(=O)NCC1CCN(C(c2ccccc2)c2ccccc2)CC1
148 to 150 °C
